conditions: buffer; pH 7.4; 200.0 µM
Consider the following compounds and their measured solubility kinetic readings.

COMPOUND	SIGN QUALIFIER	solubility kinetic, µg/mL
CCOC(=O)C1(Cc2ccccc2)CCCN(CCO)C1 (stereo unspecified)	>	43.7
N#CC(C(N)=O)=C1CCCCC1	>	24.6
O=[N+]([O-])c1ccc(Cl)cc1N1CCOCC1	>	36.4
Cc1nc2ccc(NC(=O)C3=NN(C)C(=O)CC3)cc2s1	>	45.4
O=C(CN1C(=O)NC2(CCc3ccccc32)C1=O)NCc1ccc(Cl)cc1 (stereo unspecified)	>	57.6
COc1ccccc1NC(=O)CCSc1nc(C)cs1	>	46.3
O=C(NCc1cccnc1)c1ccccc1NS(=O)(=O)c1ccc(Br)cc1	>	66.9
C=CCN=C1S/C(=C/c2cccc([N+](=O)[O-])c2)C(=O)N1CC=C	=	1.5
O=c1ccnc(SCCc2ccccc2)[nH]1	>	34.8
COc1cccc2c1O/C(=N\O)C(C(=O)Nc1ccc(C)cc1)C2 (stereo unspecified)	=	45.7
CCN(CC(=O)NCc1ccc(Cl)cc1)C(=O)/C=C/c1ccccc1	=	2.8
Cn1cnc2cc(NCc3ccccc3O)ccc21	=	36.9
COc1ccsc1C(=O)NCCN1CCOCC1	=	39.7
O=c1c(Cc2ccccc2)c(O)c2cccc3c4c(n1c23)CCCC4	=	3.7
CCC1C(=O)N=C(SCC(=O)Nc2nc3ccccc3s2)NC1=O (stereo unspecified)	>	54.4
CSc1ncc(C(=O)Nc2ccccc2F)c(-c2ccccc2)n1	=	1.3
Cn1cc(CCC(=O)NCc2ccc(Cl)cc2)c2ccccc21	=	2.2
O=C(O)CCC(=O)N1CCN(Cc2ccc3c(c2)OCO3)CC1	=	28.1
O=C(NC(=S)Nc1cccnc1Cl)c1ccco1	=	32.2
Cc1ccccc1-c1nnc(SCC(=O)NC2CCS(=O)(=O)C2)n1C (stereo unspecified)	>	57.1
Cc1nnc(SCC(=O)Nc2ccc(N(C)C)cc2)n(N)c1=O	>	50.2
CCOc1ccc(CNC(=S)Nc2ccccc2)cc1Cl	=	1.6
CCc1cc(C(=O)N2CCN(c3ccccn3)CC2)sc1C	=	43
CC1(C)CC2=C(CO1)C(=S)NC(c1ccccc1)N2CC1CCCO1 (stereo unspecified)	=	45.3
CC(C)N(C(=O)c1ccc(-c2ccccc2F)cc1)C(C)C	=	23.4
[O-][N+]1=c2ccc(Nc3ccccc3)cc2=NC12CCCCC2	<	0.2
O=C(OCc1ccc([N+](=O)[O-])cc1Cl)c1cnccn1	>	44.1
O=C(Nc1ccc(F)cc1)c1cccnc1	>	32.4
FC(F)(F)c1ccc(-n2cn[nH]c2=S)cc1	>	36.8
COc1ccccc1NCC(=O)NC(=O)NC1CCCCC1	=	5.9
COc1ccc(/C=C/C(=O)Nc2ccncc2)cc1OC	=	29.8
COc1ccc(C2SCC(=O)N2c2ccc(C)cc2)cc1 (stereo unspecified)	=	37.5
O=[N+]([O-])c1cccc(-c2csc(CS(=O)(=O)Cc3ccco3)n2)c1	=	0.6
COc1ccc(CCNC(=O)COC(=O)c2ccc(S(=O)(=O)N3CCCC3)cc2)cc1OC	=	7.2
COc1ccc(F)cc1S(=O)(=O)N1CCN(c2ccccn2)CC1	=	6.1
C=CCOC(=O)Cn1cnc2c(sc3nc(C)cc(C)c32)c1=O	=	3.2
O=C(CCNC(=O)c1ccccc1Cl)NCC1CCCO1 (stereo unspecified)	>	46.6
Cl.NC(c1ccccc1)c1ccncc1 (stereo unspecified)	>	38.6
O=S(=O)(Nc1ccccc1Br)c1cccs1	>	47.7
O=C1NC2(CCCCCC2)C(=O)N1Cc1ccccc1F	=	26
CCCC(=O)N1CC(=O)Nc2ccc(C)cc2C1c1ccccc1 (stereo unspecified)	>	48.4

This collection of values is drawn from PubChem BioAssay AID1996.
